Item-by-item account of IC50 (n = 3) against α-Glucosidase
target: α-glucosidase (Saccharomyces cerevisiae); experiment: Inhibition assay of α-glucosidase activity (p-nitrophenyl α-D-glucopyranoside substrate, absorbance at 405 nm); format: biochemical; conditions: Mean ± SE, phosphate buffer pH 6.8, 37 °C, 30 min, NI: No Inhibition
Sequence (P53341 whole entry): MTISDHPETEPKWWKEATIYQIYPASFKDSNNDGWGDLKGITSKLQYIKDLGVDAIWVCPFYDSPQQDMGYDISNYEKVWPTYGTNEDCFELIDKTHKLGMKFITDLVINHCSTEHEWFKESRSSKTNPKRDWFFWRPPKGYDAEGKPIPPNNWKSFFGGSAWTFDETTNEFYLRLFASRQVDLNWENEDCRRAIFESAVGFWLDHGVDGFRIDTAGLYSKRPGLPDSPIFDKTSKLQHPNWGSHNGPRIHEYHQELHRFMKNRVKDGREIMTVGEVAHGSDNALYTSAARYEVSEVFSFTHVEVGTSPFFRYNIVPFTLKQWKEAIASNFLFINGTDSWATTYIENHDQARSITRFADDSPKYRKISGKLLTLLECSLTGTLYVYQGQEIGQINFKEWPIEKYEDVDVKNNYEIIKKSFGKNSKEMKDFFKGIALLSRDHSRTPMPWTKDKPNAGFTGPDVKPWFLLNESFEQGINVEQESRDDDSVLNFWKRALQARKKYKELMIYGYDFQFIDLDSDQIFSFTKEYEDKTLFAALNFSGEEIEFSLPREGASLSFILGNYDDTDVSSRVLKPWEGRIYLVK
I only need the number, in µg/mL, no unit after it.

MOLECULE	NUMERIC READOUT
C[C@H]1[C@H](C)CC[C@]2(C(=O)O)CC[C@]3(C)C(=CC[C@@H]4[C@@]5(C)C[C@@H](O)[C@H](OC(=O)/C=C\c6ccc(O)cc6)C(C)(C)[C@@H]5CC[C@]43C)[C@H]12 (relative stereo)	1.54
C[C@H]1[C@H](C)CC[C@]2(C(=O)O)CC[C@]3(C)C(=CCC4[C@@]5(C)C[C@@H](O)[C@H](OC(=O)/C=C/c6ccc(O)cc6)C(C)(C)C5CC[C@]43C)[C@H]12 (relative stereo)	2.12
CC1(C)CCC2(C(=O)O)CCC3(C)C(=CCC4C5(C)CC(O)C(OC(=O)C=Cc6ccc(O)cc6)C(C)(C)C5CCC43C)C2C1 (centres unmarked) [Compound 6]	1.93

// switching to the query molecule
**Query** Entry CC1(C)CCC2(C(=O)O)CCC3(C)C(=CCC4C5(C)CC(O)C(OC(=O)C=Cc6ccc(O)cc6)C(C)(C)C5CCC43C)C2C1 (centres unmarked) [Compound 4] has what IC50 (n = 3) against α-Glucosidase?
**Result** 2.25
